- Test system: HCC1937
- Measurement Conditions: 72 h
Value Kind: EC50, CellTiter-Blue viability (µM)

query: Fill in the blank: the reported EC50, CellTiter-Blue viability of CS(=O)(=O)CCNCc1ccc(-c2ccc3ncnc(Nc4ccc(OCc5cccc(F)c5)c(Cl)c4)c3c2)o1 is ____.
result: 6.28

query: Entry to check: COc1c(C)cnc(Cn2cnc3c(Cl)nc(N)nc32)c1C
result: 0.0871

query: Entry to check: C[C@@]1(C(=O)Nc2ccc(F)nc2)CCCN1c1nc(Nc2cc(C3CC3)n[nH]2)c2cccn2n1
result: 3.3

query: Entry to check: CC(=O)O[C@H]1C(=O)[C@@]2(C)[C@H]([C@H](OC(=O)c3ccccc3)[C@]3(O)C[C@H](OC(=O)[C@H](O)[C@@H](NC(=O)c4ccccc4)c4ccccc4)C(C)=C1C3(C)C)[C@]1(OC(C)=O)CO[C@@H]1C[C@@H]2O
result: 0.00422

query: Entry to check: CS(=O)(=O)OCCCCOS(C)(=O)=O
result: 77.1

[1] COc1cccc2c1C(=O)c1c(O)c3c(c(O)c1C2=O)C[C@@](O)(C(C)=O)C[C@@H]3O[C@H]1C[C@H](N)[C@H](O)[C@H](C)O1
[2] COC(=O)C[C@](O)(CCCC(C)(C)O)C(=O)O[C@@H]1C(OC)=C[C@]23CCCN2CCc2cc4c(cc2[C@H]13)OCO4
[3] C#Cc1cccc(Nc2ncnc3cc(OC)c(OCCCCCCC(=O)NO)cc23)c1
query: Ascending by EC50, CellTiter-Blue viability, please. Quick reminder: the answer is the labels in the order asked.
result: 2, 1, 3
(2: 0.00968 µM, 1: 0.0247 µM, 3: 0.77 µM)
